biological target: Chaperone protein DnaK (Escherichia coli (strain K12)) (UniProt P0A6Y8); experiment: binders of DnaK substrate-binding domain, biophysical, NMR, chaperone (AID 1033); conditions: Purified DnaK SBD, NMR ligand binding
Sequence (P0A6Y8 whole entry, looked up, the tested form may be a part): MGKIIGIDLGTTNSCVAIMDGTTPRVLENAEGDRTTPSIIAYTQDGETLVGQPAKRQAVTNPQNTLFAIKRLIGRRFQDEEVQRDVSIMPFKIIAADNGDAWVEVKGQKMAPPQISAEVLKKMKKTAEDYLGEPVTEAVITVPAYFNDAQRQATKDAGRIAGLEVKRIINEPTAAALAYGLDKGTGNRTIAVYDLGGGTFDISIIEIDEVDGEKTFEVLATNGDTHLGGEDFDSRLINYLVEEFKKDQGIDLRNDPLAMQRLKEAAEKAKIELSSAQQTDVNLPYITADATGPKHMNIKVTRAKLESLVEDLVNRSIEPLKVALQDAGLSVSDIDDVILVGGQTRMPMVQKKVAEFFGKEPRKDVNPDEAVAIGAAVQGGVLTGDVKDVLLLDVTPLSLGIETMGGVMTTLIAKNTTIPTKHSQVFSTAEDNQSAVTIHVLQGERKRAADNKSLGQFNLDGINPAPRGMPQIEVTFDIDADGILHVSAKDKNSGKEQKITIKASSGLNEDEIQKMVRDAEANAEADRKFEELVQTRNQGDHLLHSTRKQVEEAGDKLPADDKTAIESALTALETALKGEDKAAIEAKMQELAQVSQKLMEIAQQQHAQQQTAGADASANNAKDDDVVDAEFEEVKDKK
Active and inactive are the calls of the source. How the calls were made is not given here.
Answer with one of the outcomes given here: Yes for active, No for inactive

Some solved entries appear below for comparison.
[Q] Could you please tell me the result logged for `CCOc1cccc(C(=O)c2ccc(O)c(O)c2O)c1` in this assay?
[A] No

[Q] Could you please tell me the result logged for `Cc1onc(-c2ccccc2)c1CO` in this assay?
[A] No

[Q] Could you please tell me the result logged for `CC(=O)c1cccc(NS(=O)(=O)N(C)C)c1` in this assay?
[A] No

[Q] Could you please tell me the result logged for `Nc1cccc2c(=O)[nH][nH]c(=O)c12` in this assay?
[A] No

Continuing:
[Q] Could you please tell me the result logged for `O=C(O)CCCc1nc2ccccc2s1` in this assay?
[A] No

[Q] Could you please tell me the result logged for `CC(=O)Nc1cccc(N2CCCC2=O)c1` in this assay?
[A] No

====

biological target: Chaperone protein DnaK (Escherichia coli (strain K12)) (UniProt P0A6Y8); experiment: binders of DnaK substrate-binding domain, biophysical, NMR, chaperone (AID 1033); conditions: Purified DnaK SBD, NMR ligand binding
Calls of active or inactive are those of the source. How the calls were made is not given here.
Experimental Readout: Kd

[Q] Using the record for `COc1ccc(/C=C/c2cc(O)cc(O)c2)cc1` , state its measured Kd.
[A] > 4 mM (inactive)

[Q] Using the record for `CNC(=S)Nc1cccc(C(=O)O)c1` , state its measured Kd.
[A] > 4 mM (inactive)

[Q] Using the record for COC(=O)[C@@H]1OC(=O)C2OC23[C@@]1(C)CCC1[C@]2(C)C(C[C@H](O)[C@]13C)C(C)(C)[C@H](OC(C)=O)C[C@@H]2OC(C)=O (some centres undefined) , state its measured Kd.
[A] > 4 mM (inactive)

[Q] Using the record for `COc1ccc(NC(=O)CSc2nccc(=O)[nH]2)cc1` , state its measured Kd.
[A] > 4 mM (inactive)

[Q] Using the record for `CCOC(=O)c1csc(N)n1` , state its measured Kd.
[A] > 4 mM (inactive)

[Q] Using the record for `Nc1ccc2ncsc2c1` , state its measured Kd.
[A] > 4 mM (inactive)

[Q] Using the record for `NC(=O)CSc1ncnc2ccccc12` , state its measured Kd.
[A] > 4 mM (inactive)

[Q] Using the record for `COCc1cc(Cl)nc(-c2csc(C)n2)n1` , state its measured Kd.
[A] > 4 mM (inactive)

As a next step, examine the molecule that follows.
[Q] Using the record for `Nc1ncnc(Nc2ccccc2C(F)(F)F)n1` , state its measured Kd.
[A] > 4 mM (inactive)

====

target: Chaperone protein DnaK (Escherichia coli (strain K12)) (UniProt P0A6Y8); test: binders of DnaK substrate-binding domain, biophysical, NMR, chaperone (AID 1033); conditions: Purified DnaK SBD, NMR ligand binding
Activity calls are given as the source filed them. How the calls were made is not given here.
Answer with one of the outcomes given here: TRUE for active, FALSE for inactive

[Q] Could you please tell me the result logged for `C=CCc1cc(C(=O)N2CCCCC2)ccc1O` in this assay?
[A] FALSE

[Q] Could you please tell me the result logged for `COc1ccccc1NC(=O)c1ccc(Br)o1` in this assay?
[A] FALSE

[Q] Could you please tell me the result logged for `COc1cccc(NC(=O)c2cccs2)c1` in this assay?
[A] FALSE

[Q] Could you please tell me the result logged for `CCOc1nc(C)ccc1-c1noc(-c2ccco2)n1` in this assay?
[A] FALSE

[Q] Could you please tell me the result logged for `Cc1onc(-c2ccccc2)c1CN` in this assay?
[A] FALSE

[Q] Could you please tell me the result logged for `C[n+]1cccc(C(=O)[O-])c1` in this assay?
[A] FALSE

[Q] Could you please tell me the result logged for `Cc1ccc(CNC(=O)c2ccc([N+](=O)[O-])o2)cc1` in this assay?
[A] TRUE

[Q] Could you please tell me the result logged for `Cc1cc(C(=O)Nc2sc(C)c(C)c2C#N)c(C)o1` in this assay?
[A] FALSE

[Q] Could you please tell me the result logged for `O=C(Nc1nnc(-c2ccco2)o1)C1=COCCO1` in this assay?
[A] FALSE

[Q] Could you please tell me the result logged for `CCNC(=S)N1CCC(C(N)=O)CC1` in this assay?
[A] FALSE

Continuing:
[Q] Could you please tell me the result logged for CC1(C)CC[C@]2(C(=O)O)CC[C@]3(C)C(=CCC4[C@@]5(C)CC[C@@H](O)C(C)(C)C5CC[C@]43C)C2C1 (some centres not stated) in this assay?
[A] FALSE

[Q] Could you please tell me the result logged for COC(=O)CC1C(C)(C)C(OC(C)=O)[C@@H]2[C@@H](OC(C)=O)[C@]34O[C@@]2(O)[C@]1(C)C3CC[C@]1(C)C4=CC(=O)O[C@H]1c1ccoc1 (some centres not stated) in this assay?
[A] FALSE
